assay: Pharmacokinetic profile and brain distribution in mice after oral administration; assay type: in vivo, mice (ICR); details: male, ICR (CD-1), mouse, oral 15 mg/kg, plasma
PARAMETER_MEASURED: AUC(0-t) (ng·h/mL)

1) Cc1ccc2c(Nc3cccc(Cl)c3F)nccc2c1NC(=O)c1csc2c(N)ncnc12 : 84300

* * *

biological target: BCRP (ABCG2) (Homo sapiens, UniProt Q9UNQ0); construct: expressed by SOLVO Biotechnology in mammalian (K and M) cells by chemical selection; purchased SOLVO Biotechnology; host or cells: mammalian (K and M) cells, overexpression by chemical selection; test: Vesicular transport inhibition assay; type: in vitro ADME; conditions: human, probe estrone-3-sulfate (E3S); 0.02 μM, BCRP-mediated E3S accumulation; read-out: inhibition at the lowest investigated concentration
Sequence (Q9UNQ0 whole entry): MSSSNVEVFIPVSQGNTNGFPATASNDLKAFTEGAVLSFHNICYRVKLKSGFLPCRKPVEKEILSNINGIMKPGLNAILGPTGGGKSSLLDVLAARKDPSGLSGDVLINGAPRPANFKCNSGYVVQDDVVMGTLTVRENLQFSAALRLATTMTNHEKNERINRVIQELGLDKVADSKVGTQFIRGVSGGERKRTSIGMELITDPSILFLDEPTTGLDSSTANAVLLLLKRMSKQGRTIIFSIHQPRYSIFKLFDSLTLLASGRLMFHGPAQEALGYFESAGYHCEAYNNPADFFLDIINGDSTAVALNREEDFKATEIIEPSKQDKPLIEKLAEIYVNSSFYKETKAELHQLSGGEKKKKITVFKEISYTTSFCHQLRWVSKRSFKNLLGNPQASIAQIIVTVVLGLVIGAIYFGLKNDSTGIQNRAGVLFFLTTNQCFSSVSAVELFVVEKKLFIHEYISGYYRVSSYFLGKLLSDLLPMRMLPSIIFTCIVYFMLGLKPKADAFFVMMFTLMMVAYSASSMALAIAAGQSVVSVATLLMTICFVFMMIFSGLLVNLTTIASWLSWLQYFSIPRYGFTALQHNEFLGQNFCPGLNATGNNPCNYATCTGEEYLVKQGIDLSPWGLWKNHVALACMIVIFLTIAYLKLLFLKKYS
PARAMETER_MEASURED: inhibition at 0.02 µM (%)

1. Cc1ccc2c(Nc3cccc(Cl)c3F)nccc2c1NC(=O)c1csc2c(N)ncnc12 [belvarafenib 2HCl] : 70

* * *

test: Pharmacokinetic profile and brain distribution in rats after oral administration; assay type: in vivo, rats (SD); conditions: male, SD, rat, oral 15 mg/kg, plasma
PARAMETER_MEASURED: AUC(0-inf)

1) Cc1ccc2c(Nc3cccc(Cl)c3F)nccc2c1NC(=O)c1csc2c(N)ncnc12 [Belvarafenib] : 50600 ng·h/mL

* * *

test: Pharmacokinetic profile and brain distribution in mice after oral administration; format: in vivo, mice (ICR); details: ICR (CD-1), mouse, oral 30 mg/kg, AUClast brain / AUClast plasma, read-out: B/P ratio
PARAMETER_MEASURED: Kp

1. Cc1ccc2c(Nc3cccc(Cl)c3F)nccc2c1NC(=O)c1csc2c(N)ncnc12 : 0.8

* * *

assay: Brain to plasma ratio of belvarafenib, summary over mice and rats; format: in vivo; details: mouse, rat, brain/plasma, oral, 30 mg/kg
PARAMETER_MEASURED: Kp

1) Cc1ccc2c(Nc3cccc(Cl)c3F)nccc2c1NC(=O)c1csc2c(N)ncnc12 : 0.8 to 1.2

* * *

assay: Pharmacokinetic profile and brain distribution in mice after oral administration; assay type: in vivo, mice (ICR); settings: male, ICR (CD-1), mouse, oral 15 mg/kg, AUClast brain / AUClast plasma, read-out: B/P ratio
PARAMETER_MEASURED: Kp

1) Cc1ccc2c(Nc3cccc(Cl)c3F)nccc2c1NC(=O)c1csc2c(N)ncnc12 : 0.929

* * *

Test: Pharmacokinetic profile and brain distribution in rats after oral administration
Format: in vivo, rats (SD)
Conditions: SD (Sprague-Dawley), rat, oral 30 mg/kg, AUClast brain / AUClast plasma, read-out: B/P ratio
Description: Example 2 evaluated pharmacokinetic profile and brain distribution of belvarafenib in rats after oral administration. The rat strain was SD supplied by Orient Bio Inc., Korea. […] In a single one day dosing regimen, rats were fasted overnight. The body weight of the rats was measured on the day of treatment, from which dosing volumes were set. […] Plasma and brain concentrations of belvarafenib determined by analysis using LC-MS/MS (Waters UPLC H-Class/Xevo TQ (Waters USA)). […]
PARAMETER_MEASURED: Kp

1. Cc1ccc2c(Nc3cccc(Cl)c3F)nccc2c1NC(=O)c1csc2c(N)ncnc12 : 1.2

* * *

experiment: Pharmacokinetic profile and brain distribution in rats after oral administration; assay type: in vivo, rats (SD); conditions: male, SD, rat, oral 15 mg/kg, brain
PARAMETER_MEASURED: half-life

1) Cc1ccc2c(Nc3cccc(Cl)c3F)nccc2c1NC(=O)c1csc2c(N)ncnc12 : 9 h

* * *

assay: Pharmacokinetic profile and brain distribution in mice after oral administration; format: in vivo, mice (ICR); details: male, ICR (CD-1), mouse, oral 15 mg/kg, brain
PARAMETER_MEASURED: Tmax (h)

1. Cc1ccc2c(Nc3cccc(Cl)c3F)nccc2c1NC(=O)c1csc2c(N)ncnc12 : 7

* * *

assay: Pharmacokinetic profile and brain distribution in mice after oral administration; assay type: in vivo, mice (ICR); conditions: male, ICR (CD-1), mouse, oral 15 mg/kg, plasma
PARAMETER_MEASURED: Tmax (h)

1. Cc1ccc2c(Nc3cccc(Cl)c3F)nccc2c1NC(=O)c1csc2c(N)ncnc12 : 4

* * *

target: MDR1 (ABCB1/P-gp) (Homo sapiens); construct: expressed by SOLVO Biotechnology in mammalian (K and M) cells by chemical selection; purchased SOLVO Biotechnology; host or cells: mammalian (K and M) cells, overexpression by chemical selection; assay: Vesicular transport inhibition assay; type: in vitro ADME; conditions: human, probe N-methyl quinidine (NMQ); MDR1-mediated NMQ accumulation, highest applied concentration (13.3 μM); read-out: Maximum inhibition (% of control)
Sequence (P08183 whole entry): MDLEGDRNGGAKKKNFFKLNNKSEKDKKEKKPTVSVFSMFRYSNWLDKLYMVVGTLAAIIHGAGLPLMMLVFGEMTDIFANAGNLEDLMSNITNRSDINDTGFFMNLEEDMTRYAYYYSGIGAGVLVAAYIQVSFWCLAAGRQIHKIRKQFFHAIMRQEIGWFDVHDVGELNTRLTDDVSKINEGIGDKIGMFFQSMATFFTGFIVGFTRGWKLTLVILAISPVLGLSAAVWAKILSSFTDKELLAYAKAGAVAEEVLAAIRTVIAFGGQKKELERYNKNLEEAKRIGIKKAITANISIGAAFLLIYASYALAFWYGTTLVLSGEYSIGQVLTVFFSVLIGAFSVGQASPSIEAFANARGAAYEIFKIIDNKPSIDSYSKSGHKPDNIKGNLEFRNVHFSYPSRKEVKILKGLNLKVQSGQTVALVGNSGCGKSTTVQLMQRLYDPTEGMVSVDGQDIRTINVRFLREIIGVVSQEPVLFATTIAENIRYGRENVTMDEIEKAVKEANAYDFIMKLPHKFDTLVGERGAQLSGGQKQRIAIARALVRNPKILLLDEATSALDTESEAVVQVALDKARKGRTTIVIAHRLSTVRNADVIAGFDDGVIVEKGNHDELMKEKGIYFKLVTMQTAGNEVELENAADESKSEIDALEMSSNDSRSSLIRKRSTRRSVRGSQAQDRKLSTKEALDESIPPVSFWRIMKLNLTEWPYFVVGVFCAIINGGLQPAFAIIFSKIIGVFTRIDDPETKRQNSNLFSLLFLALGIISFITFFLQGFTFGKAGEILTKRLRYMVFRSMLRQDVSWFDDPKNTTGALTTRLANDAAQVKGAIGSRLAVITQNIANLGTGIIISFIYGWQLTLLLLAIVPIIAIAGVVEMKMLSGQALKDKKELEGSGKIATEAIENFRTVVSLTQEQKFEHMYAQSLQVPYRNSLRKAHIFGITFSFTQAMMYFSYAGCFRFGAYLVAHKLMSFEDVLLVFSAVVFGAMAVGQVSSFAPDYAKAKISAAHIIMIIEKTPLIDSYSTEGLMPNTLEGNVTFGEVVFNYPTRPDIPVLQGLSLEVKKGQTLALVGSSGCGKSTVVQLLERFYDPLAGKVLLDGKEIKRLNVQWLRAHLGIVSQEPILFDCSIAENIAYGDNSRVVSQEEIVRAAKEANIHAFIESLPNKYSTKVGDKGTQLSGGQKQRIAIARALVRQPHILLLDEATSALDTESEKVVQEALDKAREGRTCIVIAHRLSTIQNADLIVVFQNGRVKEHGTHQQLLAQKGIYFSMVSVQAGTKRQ
PARAMETER_MEASURED: inhibition at 13.3 µM (%)

1) Cc1ccc2c(Nc3cccc(Cl)c3F)nccc2c1NC(=O)c1csc2c(N)ncnc12 [belvarafenib 2HCl] : 32

* * *

experiment: Pharmacokinetic profile and brain distribution in rats after oral administration; assay type: in vivo, rats (SD); conditions: male, SD, rat, oral 15 mg/kg, brain
PARAMETER_MEASURED: MRT last (h)

1) Cc1ccc2c(Nc3cccc(Cl)c3F)nccc2c1NC(=O)c1csc2c(N)ncnc12 [Belvarafenib] : 15.5

* * *

test: Pharmacokinetic profile and brain distribution in rats after oral administration; assay type: in vivo, rats (SD); conditions: male, SD, rat, oral 15 mg/kg, plasma
PARAMETER_MEASURED: Cmax (ng/mL)

1) Cc1ccc2c(Nc3cccc(Cl)c3F)nccc2c1NC(=O)c1csc2c(N)ncnc12 : 2130

* * *

test: Pharmacokinetic profile and brain distribution in mice after oral administration; type: in vivo, mice (ICR); settings: male, ICR (CD-1), mouse, brain/plasma, oral, 15 mg/kg, read-out: B/P
PARAMETER_MEASURED: Kp

1) Cc1ccc2c(Nc3cccc(Cl)c3F)nccc2c1NC(=O)c1csc2c(N)ncnc12 [Belvarafenib] : 0.93

* * *

experiment: Pharmacokinetic profile and brain distribution in rats after oral administration; format: in vivo, rats (SD); conditions: male, SD, rat, oral 15 mg/kg, plasma
PARAMETER_MEASURED: Tmax (h)

1. Cc1ccc2c(Nc3cccc(Cl)c3F)nccc2c1NC(=O)c1csc2c(N)ncnc12 : 4
